test_target: T1, human MSLN-hFc recombinant protein (human, UniProt Q13421 296-580)
T1 construct: Captured by an anti-human IgG antibody on the chip; also called human MSLN protein; Acro MSN-H5253
T1 sequence (Q13421 other isoform, or with tags, fused parts or gaps): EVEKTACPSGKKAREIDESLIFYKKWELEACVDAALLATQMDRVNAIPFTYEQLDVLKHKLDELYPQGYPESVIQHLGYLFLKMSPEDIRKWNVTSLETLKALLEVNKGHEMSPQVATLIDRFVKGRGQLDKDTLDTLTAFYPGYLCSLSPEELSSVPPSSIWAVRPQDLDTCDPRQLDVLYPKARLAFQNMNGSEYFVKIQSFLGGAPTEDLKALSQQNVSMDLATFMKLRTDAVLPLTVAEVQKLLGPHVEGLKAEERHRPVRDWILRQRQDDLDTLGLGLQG
assay_explanation: SPR (Biacore 8K), MSLN-hFc captured, antibody injected
Assignment: determine reported Kd for the given binders.
Write the value in nM as a bare number.

QUERY: Look up Kd: F3.80.22-H5 (scFv, not shown: small tags and cut ends, also called S009-F3.80.22 humanized antibody VL1a + VH1) scFv: DIVMTQTPLSLPVTPGEPASISCRSSQSLEHNDGNTYLHWFLQKPGQSPQLLIYKVSNRFSGVPDRFSGSGSGTDFTLKISRVEAEDVGVYYCSQSTHVPFTFGQGTKLEIKGGGGSGGGGSGGGGSEVQLVQSGAEVKKPGATVKISCKVSGYTFTDYEIHWVQQAPGKGLEWMGAFDPEIGGSAYNQKFKDRVTITADKSTDTAYMELSSLRSEDTAVYYCTDYYGSSSGYFDVWGQGTTVTVSS
RESULT: 159

QUERY: Look up Kd: F2.39.3-H9 (scFv, not shown: small tags and cut ends, also called S009-F2.39.3 humanized antibody VH3 + VL1) scFv: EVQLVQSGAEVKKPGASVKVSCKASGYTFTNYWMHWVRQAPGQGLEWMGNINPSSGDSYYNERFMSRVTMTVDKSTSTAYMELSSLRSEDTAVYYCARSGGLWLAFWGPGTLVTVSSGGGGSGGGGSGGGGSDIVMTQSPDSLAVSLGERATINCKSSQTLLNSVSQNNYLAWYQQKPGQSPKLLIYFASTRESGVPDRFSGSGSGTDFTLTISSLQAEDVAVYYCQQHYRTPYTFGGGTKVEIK
RESULT: 0.734

QUERY: Look up Kd: F3.80.22-H10 (scFv, not shown: small tags and cut ends, also called S009-F3.80.22 humanized antibody VL2 + VH2) scFv: DIVMTQTPLSLPVTPGEPASISCRSSQSLEHNNGNTYLHWFLHKPGQSPQLLIYKVSNRFSGVPDRFSGSGSGTDFTLKISRVEAEDVGVYYCSQSTHVPFTFGQGTKLEIKGGGGSGGGGSGGGGSEVQLVQSGAEVKKPGATVKISCKASGYTFTDYEIHWVQQAPGKGLEWMGAFDPEIGGSAYNQKFKDRVTITADKSTSTAYMELSSLRSEDTAVYYCTDYYGSSSGYFDVWGQGTTVTVSS
RESULT: 20.9

QUERY: Look up Kd: F7.44.20-H9 (scFv, not shown: small tags and cut ends, also called S009-F7.44.20 humanized antibody VH2 + VL1) scFv: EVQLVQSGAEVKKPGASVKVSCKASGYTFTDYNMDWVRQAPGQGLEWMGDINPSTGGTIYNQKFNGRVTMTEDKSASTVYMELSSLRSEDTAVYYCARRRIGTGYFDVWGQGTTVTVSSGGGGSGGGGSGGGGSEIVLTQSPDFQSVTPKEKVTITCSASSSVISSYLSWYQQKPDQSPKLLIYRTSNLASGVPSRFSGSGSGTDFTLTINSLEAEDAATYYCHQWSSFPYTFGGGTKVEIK
RESULT: 0.464

QUERY: Look up Kd: F2.23.12-H5 (scFv, not shown: small tags and cut ends, also called S009-F2.23.12 humanized antibody VH2 + VL1) scFv: EVQLVQSGAEVKKPGASVKVSCKASGYTFTNYWMHWVRQAPGQGLEWMGNINPSNGGPYYNERFRSRVTMTVDKSTSTAYMELSSLRSEDTAVYYCARPYYGSSYGYFDYWGQGTTVTVSSGGGGSGGGGSGGGGSDIQMTQSPSSLSASVGDRVTITCKASQDINKYIAWYQQKPGKAPKLLIHYTSELQPGVPSRFSGSGSGTDFTFTISSLQPEDIATYYCLQYANPLRTFGGGTKVEIK
RESULT: 7.74
